Test system: NIH3T3
Experiment: In vitro cytotoxicity, IC50 by MTT method, NIH3T3
Type: cell-based
Details: Mus musculus; NIH3T3 cell strain; read-out: IC50 NIH3T3
Here, each record is paired with measured pIC50 data.
Kindly note that pIC50 refers to -log10 of the concentration in mol/L and answer with the value alone.

Answered examples (3):
CCOC(=O)c1cc2c3ccccc3n(C)c2c(C)n1
4.22
CCCc1nc(C(=O)OCC)cc2c3ccccc3n(Cc3ccccc3)c12
2.80
CCCc1nc(C(=O)O)cc2c3ccccc3n(CCCc3ccccc3)c12
3.96

Item: CCCCn1c2ccccc2c2cc(C(=O)OCC)ncc21 [Compound 32, ethyl 9-butyl-β-carboline-3-carboxylate] | pIC50: 4.22

Item: CCCCOC(=O)c1cc2c3ccccc3n(CCCC)c2cn1 [Compound 40, butyl 9-butyl-β-carboline-3-carboxylate] | pIC50: 4.30

Cited source: patent US20090227619A1
